Target: Histone acetyltransferase KAT2B (Homo sapiens)
Conditions: dose 200.0 µM, time 30.0 min
measure: ΔTm

compound="CC(=O)c1cc(C(=O)Nc2cc(C(C)O)cc(-c3cnn(C4CC4)c3)c2F)c2cc(N)ccn12 (stereo unspecified)" measure=ΔTm val="-0.3 °C"
compound=C[C@@H]1CC(=O)Nc2cccc(-c3ccc4c(c3)c(-c3cnn(C)c3)nn4C)c2N1 measure=ΔTm val="-0.2 °C"
compound="CO[C@H]1CC[C@H](n2c([C@@H]3CCCC(=O)N3c3ccc(F)c(F)c3)nc3cc(-c4c(C)noc4C)ccc32)CC1 [INOBRODIB]" measure=ΔTm val="-0.5 °C"
compound="COc1ccn2c(C(C)=O)cc(C(=O)Nc3cc(C(C)O)cc(-c4cnn(C5CC5)c4)c3F)c2c1 (stereo unspecified)" measure=ΔTm val="-0.6 °C"
compound=CC(=O)c1cc(C(=O)Nc2cc(CO)cc(-c3cnn(C4CC4)c3)c2F)c2cc(OC(=O)N(C)C)ccn12 measure=ΔTm val="-0.6 °C"
compound=CC(=O)c1cc(C(=O)Nc2cc(CO)cc(-c3cnn(C)c3)c2F)c2cc(N)ccn12 measure=ΔTm val="-0.2 °C"

----------
Biological target: Bromodomain-containing protein 4 (Homo sapiens, UniProt O60885)
Conditions: dose 200.0 µM, time 30.0 min
measure: ΔTm (°C)

molecule=CC(=O)c1cc(C(=O)Nc2cc(CO)cc(-c3cnn(C)c3)c2F)c2cc(N)ccn12 measure=ΔTm val=0.5
molecule="CC(=O)c1cc(C(=O)Nc2cc(C(C)O)cc(-c3cnn(C4CC4)c3)c2F)c2cc(N)ccn12 (stereo unspecified)" measure=ΔTm val=0
molecule="CO[C@H]1CC[C@H](n2c([C@@H]3CCCC(=O)N3c3ccc(F)c(F)c3)nc3cc(-c4c(C)noc4C)ccc32)CC1 [INOBRODIB]" measure=ΔTm val=1.3
molecule=C[C@@H]1CC(=O)Nc2cccc(-c3ccc4c(c3)c(-c3cnn(C)c3)nn4C)c2N1 measure=ΔTm val=0
molecule="COc1ccn2c(C(C)=O)cc(C(=O)Nc3cc(C(C)O)cc(-c4cnn(C5CC5)c4)c3F)c2c1 (stereo unspecified)" measure=ΔTm val=-1.5
molecule=CC(=O)c1cc(C(=O)Nc2cc(CO)cc(-c3cnn(C4CC4)c3)c2F)c2cc(OC(=O)N(C)C)ccn12 measure=ΔTm val=-1.5

----------
Experiment: Cmax in Sprague-Dawley rat at 25 mg/kg, po measured up to 24 hrs
Type: ADME, organism-based
Design: dose 25 mg/kg, time < 24 hrs, route po
Conditions: in vivo
Catalogue of Cmax values
measure: Cmax (ng/mL)

compound=CC(=O)c1cc(C(=O)Nc2cc(CO)cc(-c3cnn(C4CC4)c3)c2F)c2cc(OC(=O)N(C)C)ccn12 readout_unit=ng/mL val=2040
compound="COc1ccn2c(C(C)=O)cc(C(=O)Nc3cc(C(C)O)cc(-c4cnn(C5CC5)c4)c3F)c2c1 (stereo not drawn)" readout_unit=ng/mL val=1570
compound="CC(=O)c1cc(C(=O)Nc2cc(C(C)O)cc(-c3cnn(C4CC4)c3)c2F)c2cc(N)ccn12 (stereo not drawn)" readout_unit=ng/mL val=46.8

----------
Test: AUC (0 to infinity) in Sprague-Dawley rat at 5 mg/kg, iv administered as single dose measured up to 24 hrs
Assay type: ADME, organism-based
Parameters: time < 24 hrs, dose 5 mg/kg, route iv
Settings: Sprague-Dawley, in vivo
measure: AUC(0-inf) (ng·h/mL)

compound="CC(=O)c1cc(C(=O)Nc2cc(C(C)O)cc(-c3cnn(C4CC4)c3)c2F)c2cc(N)ccn12 (stereo unspecified)" val=796

----------
Biological target: CREB-binding protein (Homo sapiens, UniProt Q92793)
Sequence (Q92793 whole entry, the tested form may be a part): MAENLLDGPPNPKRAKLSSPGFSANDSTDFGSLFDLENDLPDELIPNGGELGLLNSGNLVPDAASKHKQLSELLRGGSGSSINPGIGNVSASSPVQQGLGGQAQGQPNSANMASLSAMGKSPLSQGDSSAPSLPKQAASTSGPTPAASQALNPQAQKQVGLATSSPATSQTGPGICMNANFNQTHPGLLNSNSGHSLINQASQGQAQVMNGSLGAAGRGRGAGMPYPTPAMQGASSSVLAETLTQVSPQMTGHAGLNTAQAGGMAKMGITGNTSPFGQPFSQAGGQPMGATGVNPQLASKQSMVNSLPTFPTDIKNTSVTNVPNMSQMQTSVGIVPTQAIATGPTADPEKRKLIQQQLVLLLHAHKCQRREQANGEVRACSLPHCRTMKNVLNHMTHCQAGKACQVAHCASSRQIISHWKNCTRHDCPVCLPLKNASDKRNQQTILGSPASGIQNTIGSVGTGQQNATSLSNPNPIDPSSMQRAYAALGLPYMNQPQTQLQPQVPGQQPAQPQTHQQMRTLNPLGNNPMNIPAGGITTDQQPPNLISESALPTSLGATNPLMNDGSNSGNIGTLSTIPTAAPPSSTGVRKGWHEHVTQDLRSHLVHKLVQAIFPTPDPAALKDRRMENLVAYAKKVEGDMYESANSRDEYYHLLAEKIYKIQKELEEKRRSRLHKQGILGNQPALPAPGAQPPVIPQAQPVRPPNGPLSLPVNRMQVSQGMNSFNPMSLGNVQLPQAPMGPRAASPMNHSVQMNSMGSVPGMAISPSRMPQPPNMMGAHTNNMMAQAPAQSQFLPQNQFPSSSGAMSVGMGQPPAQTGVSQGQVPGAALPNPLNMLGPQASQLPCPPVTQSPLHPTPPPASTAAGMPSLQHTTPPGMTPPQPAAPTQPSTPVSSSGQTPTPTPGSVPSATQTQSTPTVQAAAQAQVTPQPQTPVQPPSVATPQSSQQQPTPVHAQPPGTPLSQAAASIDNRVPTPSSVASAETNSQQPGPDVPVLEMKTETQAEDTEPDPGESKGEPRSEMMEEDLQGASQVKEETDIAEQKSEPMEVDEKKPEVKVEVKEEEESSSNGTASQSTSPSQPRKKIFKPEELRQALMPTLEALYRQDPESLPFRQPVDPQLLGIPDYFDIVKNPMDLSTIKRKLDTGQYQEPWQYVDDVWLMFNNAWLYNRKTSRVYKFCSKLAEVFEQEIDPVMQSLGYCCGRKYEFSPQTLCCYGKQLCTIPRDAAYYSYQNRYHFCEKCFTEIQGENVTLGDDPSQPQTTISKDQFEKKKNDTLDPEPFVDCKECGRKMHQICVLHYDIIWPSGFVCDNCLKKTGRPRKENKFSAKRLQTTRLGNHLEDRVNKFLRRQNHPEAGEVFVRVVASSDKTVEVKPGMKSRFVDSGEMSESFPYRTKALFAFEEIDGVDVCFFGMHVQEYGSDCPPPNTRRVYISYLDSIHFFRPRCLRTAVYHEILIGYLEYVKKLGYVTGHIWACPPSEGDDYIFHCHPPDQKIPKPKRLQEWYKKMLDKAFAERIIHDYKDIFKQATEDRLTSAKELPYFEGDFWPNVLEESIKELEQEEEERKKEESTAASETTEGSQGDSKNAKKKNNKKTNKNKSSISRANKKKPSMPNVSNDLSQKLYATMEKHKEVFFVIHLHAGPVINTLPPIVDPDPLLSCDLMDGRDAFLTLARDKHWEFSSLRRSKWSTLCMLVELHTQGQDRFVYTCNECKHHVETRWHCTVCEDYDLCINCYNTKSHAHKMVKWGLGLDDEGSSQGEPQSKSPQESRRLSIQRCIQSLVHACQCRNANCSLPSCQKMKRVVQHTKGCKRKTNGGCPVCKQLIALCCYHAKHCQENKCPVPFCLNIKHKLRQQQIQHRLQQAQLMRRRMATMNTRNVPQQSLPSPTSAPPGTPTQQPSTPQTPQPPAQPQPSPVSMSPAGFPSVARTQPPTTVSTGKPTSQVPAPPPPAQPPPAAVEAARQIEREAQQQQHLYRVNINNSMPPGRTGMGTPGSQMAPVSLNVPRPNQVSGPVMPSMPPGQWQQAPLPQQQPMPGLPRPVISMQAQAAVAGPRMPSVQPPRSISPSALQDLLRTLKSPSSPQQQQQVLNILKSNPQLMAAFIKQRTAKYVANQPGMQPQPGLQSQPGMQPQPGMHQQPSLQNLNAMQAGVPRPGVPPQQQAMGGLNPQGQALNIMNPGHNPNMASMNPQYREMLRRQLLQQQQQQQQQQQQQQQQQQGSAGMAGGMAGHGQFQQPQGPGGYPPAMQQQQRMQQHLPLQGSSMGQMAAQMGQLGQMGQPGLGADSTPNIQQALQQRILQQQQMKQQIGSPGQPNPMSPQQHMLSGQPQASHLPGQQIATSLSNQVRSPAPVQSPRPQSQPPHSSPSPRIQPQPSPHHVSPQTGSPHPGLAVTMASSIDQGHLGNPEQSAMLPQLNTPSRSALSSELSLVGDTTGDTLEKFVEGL
Test: Inhibition of His6-tagged human CBP bromodomain (1081 to 1197 residues) expressed in Escherichia coli BL21 (DE3) incubated for 30 mins by HTRF assay
So basically, the class depends on measured IC50, and the ranges are lower band: < 10 nM; central band: ≥ 10 nM and < 30 nM; upper band: ≥ 30 nM

compound=CC(=O)c1cc(C(=O)Nc2cc(CO)cc(-c3cnn(C)c3)c2F)c2cc(CN)ccn12 test_target="CREB-binding protein (Homo sapiens, UniProt Q92793)" group="upper band"
compound="CC(=O)c1cc(C(=O)Nc2cc(C(C)O)cc(-c3cnn(C4CC4)c3)c2F)c2cc(OC(=O)N(C)C)ccn12 (configuration not stated)" test_target="CREB-binding protein (Homo sapiens, UniProt Q92793)" group="central band"
compound=CNc1ccn2c(C(C)=O)cc(C(=O)Nc3cc(CO)cc(-c4cnn(C)c4)c3F)c2c1 test_target="CREB-binding protein (Homo sapiens, UniProt Q92793)" group="lower band"
compound="CC(=O)c1cc(C(=O)Nc2cc(C(C)O)cc(-c3cnn(C4CC4)c3)c2F)c2cc(N)ccn12 (configuration not stated)" test_target="CREB-binding protein (Homo sapiens, UniProt Q92793)" group="lower band"
compound="COc1ccn2c(C(C)=O)cc(C(=O)Nc3cc(C(C)O)cc(-c4cnn(C5CC5)c4)c3F)c2c1 (configuration not stated)" test_target="CREB-binding protein (Homo sapiens, UniProt Q92793)" group="lower band"
compound=CC(=O)c1cc(C(=O)Nc2cc(CO)cc(-c3cnn(C)c3)c2F)c2cc(C)ccn12 test_target="CREB-binding protein (Homo sapiens, UniProt Q92793)" group="central band"
compound=CC(=O)c1cc(C(=O)Nc2cc(CO)cc(-c3cnn(C)c3)c2F)c2cc(OC(=O)C(C)(C)C)ccn12 test_target="CREB-binding protein (Homo sapiens, UniProt Q92793)" group="upper band"
compound=COc1ccn2c(C(C)=O)cc(C(=O)Nc3cc(Cl)cc(-c4cnn(C)c4)c3F)c2c1 test_target="CREB-binding protein (Homo sapiens, UniProt Q92793)" group="upper band"
compound=COc1ccn2c(C(C)=O)cc(C(=O)Nc3cc(CO)cc(-c4cnn(C)c4)c3F)c2c1 test_target="CREB-binding protein (Homo sapiens, UniProt Q92793)" group="central band"
compound=CCc1ccn2c(C(C)=O)cc(C(=O)Nc3cc(CO)cc(-c4cnn(C)c4)c3F)c2c1 test_target="CREB-binding protein (Homo sapiens, UniProt Q92793)" group="central band"
compound=CC(=O)c1cc(C(=O)Nc2cc(CO)cc(-c3cnn(C4CC4)c3)c2F)c2cc(O)ccn12 test_target="CREB-binding protein (Homo sapiens, UniProt Q92793)" group="central band"
compound=COc1ccn2c(C(C)=O)cc(C(=O)Nc3cc(C=O)cc(-c4cnn(C)c4)c3F)c2c1 test_target="CREB-binding protein (Homo sapiens, UniProt Q92793)" group="central band"

----------
Target: Bromodomain-containing protein 3 (Homo sapiens)
Sequence (Q15059 whole entry, the tested form may be a part): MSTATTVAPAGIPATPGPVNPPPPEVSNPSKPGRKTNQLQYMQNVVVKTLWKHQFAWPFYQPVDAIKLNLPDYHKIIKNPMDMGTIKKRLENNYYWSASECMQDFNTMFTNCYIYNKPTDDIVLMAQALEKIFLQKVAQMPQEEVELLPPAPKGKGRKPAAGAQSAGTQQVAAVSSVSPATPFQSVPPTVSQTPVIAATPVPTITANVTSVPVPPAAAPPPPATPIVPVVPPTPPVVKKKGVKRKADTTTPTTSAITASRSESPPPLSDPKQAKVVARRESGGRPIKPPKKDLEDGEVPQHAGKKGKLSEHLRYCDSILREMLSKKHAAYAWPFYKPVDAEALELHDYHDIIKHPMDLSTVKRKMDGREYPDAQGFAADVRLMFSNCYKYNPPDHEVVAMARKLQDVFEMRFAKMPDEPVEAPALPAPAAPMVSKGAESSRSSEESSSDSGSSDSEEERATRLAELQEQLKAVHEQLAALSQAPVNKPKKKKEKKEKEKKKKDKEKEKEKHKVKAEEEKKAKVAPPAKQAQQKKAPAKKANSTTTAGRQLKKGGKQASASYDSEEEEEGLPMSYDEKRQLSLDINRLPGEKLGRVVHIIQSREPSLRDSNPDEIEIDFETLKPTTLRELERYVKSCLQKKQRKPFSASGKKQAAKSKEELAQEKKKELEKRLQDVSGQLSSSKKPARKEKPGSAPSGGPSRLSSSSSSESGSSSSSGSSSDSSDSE
Assay: Binding affinity to His6-tagged human BRD3 bromodomain-2 (306 to 416 residues) expressed in Escherichia coli BL21 (DE3) assessed as dissociation constant by ITC analysis
measure: Kd (nM)

compound="COc1ccn2c(C(C)=O)cc(C(=O)Nc3cc(C(C)O)cc(-c4cnn(C5CC5)c4)c3F)c2c1 (stereo unspecified)" measure=Kd readout_unit=nM val=1500

----------
Test: AUC (0 to infinity) in Sprague-Dawley rat at 25 mg/kg, po measured up to 24 hrs
Assay type: ADME, organism-based
Set-up: time < 24 hrs, dose 25 mg/kg, route po
Details: in vivo
Catalogue of AUC(0-inf) values
measure: AUC(0-inf) (µg·h/mL)

compound=CC(=O)c1cc(C(=O)Nc2cc(CO)cc(-c3cnn(C4CC4)c3)c2F)c2cc(OC(=O)N(C)C)ccn12 measure=AUC(0-inf) readout_unit=µg·h/mL val=9.45
compound="CC(=O)c1cc(C(=O)Nc2cc(C(C)O)cc(-c3cnn(C4CC4)c3)c2F)c2cc(N)ccn12 (stereo not drawn)" measure=AUC(0-inf) readout_unit=µg·h/mL val=0.0294
compound="COc1ccn2c(C(C)=O)cc(C(=O)Nc3cc(C(C)O)cc(-c4cnn(C5CC5)c4)c3F)c2c1 (stereo not drawn)" measure=AUC(0-inf) readout_unit=µg·h/mL val=4.82

----------
Test: Hepatic clearance in human liver microsomes at 1 uM incubated for 45 mins in presence of NADPH by LC-MS/MS analysis
Type: ADME, Microsome
Settings: read-out: CLH
measure: CLint scaled at 1 µM (mL/min/kg)

molecule="COc1ccn2c(C(C)=O)cc(C(=O)Nc3cc(C(C)O)cc(-c4cnn(C5CC5)c4)c3F)c2c1 (stereo not drawn)" readout_unit=mL/min/kg val=16.5
molecule="Cc1ncc2n1-c1ccc(Cl)cc1C(c1ccccc1F)=NC2 [MIDAZOLAM]" readout_unit=mL/min/kg val=19.9
molecule=CC(=O)c1cc(C(=O)Nc2cc(CO)cc(-c3cnn(C4CC4)c3)c2F)c2cc(OC(=O)N(C)C)ccn12 readout_unit=mL/min/kg val=35.3

----------
Catalogue of ΔTm values
Biological target: Bromodomain-containing protein 4 (Homo sapiens, UniProt O60885)
Details: dose 200.0 µM, time 30.0 min
measure: ΔTm (°C)

compound=CC(=O)c1cc(C(=O)Nc2cc(CO)cc(-c3cnn(C4CC4)c3)c2F)c2cc(OC(=O)N(C)C)ccn12 test_target="Bromodomain-containing protein 4 (Homo sapiens, UniProt O60885)" measure=ΔTm readout_unit=°C val=0.5
compound="CC(=O)c1cc(C(=O)Nc2cc(C(C)O)cc(-c3cnn(C4CC4)c3)c2F)c2cc(N)ccn12 (stereo unspecified)" test_target="Bromodomain-containing protein 4 (Homo sapiens, UniProt O60885)" measure=ΔTm readout_unit=°C val=-0.6
compound=CC(=O)c1cc(C(=O)Nc2cc(CO)cc(-c3cnn(C)c3)c2F)c2cc(N)ccn12 test_target="Bromodomain-containing protein 4 (Homo sapiens, UniProt O60885)" measure=ΔTm readout_unit=°C val=2.5
compound=CO[C@H]1CC[C@H](n2c([C@@H]3CCCC(=O)N3c3ccc(F)c(F)c3)nc3cc(-c4c(C)noc4C)ccc32)CC1 test_target="Bromodomain-containing protein 4 (Homo sapiens, UniProt O60885)" measure=ΔTm readout_unit=°C val=6.3
compound="COc1ccn2c(C(C)=O)cc(C(=O)Nc3cc(C(C)O)cc(-c4cnn(C5CC5)c4)c3F)c2c1 (stereo unspecified)" test_target="Bromodomain-containing protein 4 (Homo sapiens, UniProt O60885)" measure=ΔTm readout_unit=°C val=-0.5
compound=C[C@@H]1CC(=O)Nc2cccc(-c3ccc4c(c3)c(-c3cnn(C)c3)nn4C)c2N1 test_target="Bromodomain-containing protein 4 (Homo sapiens, UniProt O60885)" measure=ΔTm readout_unit=°C val=5
